Test system: human lung cancer cell line A549
experimentalDetails: CCK-8 antiproliferative assay, A549
Type: cell-based
testContext: CCK-8, 48 h, mean ± SD of three experiments
resultType: IC50 (µM)
The figure you give is taken to be in µM; do not add the unit.

Request: Provide measured IC50 value, entry: N.N.[Cl][Pt][Cl] [Cisplatin, cisplatin, reference compound]
Result: 4.97
